The origin of these recorded values is patent US20250381223A1.

# experimental-system: T1, mesothelin-Fc recombinant protein (human, UniProt Q13421 296-580, limits assumed)
# T1 construct: construct not described; also called Meso-Fc; not shown: Fc part
# T1 sequence (Q13421 other isoform, or with tags, fused parts or gaps limits assumed): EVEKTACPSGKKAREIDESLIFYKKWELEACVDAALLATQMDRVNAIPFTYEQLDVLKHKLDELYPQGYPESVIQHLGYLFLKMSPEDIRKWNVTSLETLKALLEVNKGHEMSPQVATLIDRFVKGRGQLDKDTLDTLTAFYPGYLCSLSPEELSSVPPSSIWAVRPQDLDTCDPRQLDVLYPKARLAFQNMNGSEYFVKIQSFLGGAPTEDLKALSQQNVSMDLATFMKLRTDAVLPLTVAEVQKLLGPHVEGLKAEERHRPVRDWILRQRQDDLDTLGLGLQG
# protocol-summary: flow cytometry, T cells with CAR mRNA, mesothelin-Fc + PE-anti-IgG-Fc; Control 0.63
assay-readout: percent of cells in the gate (%)
One number for each entry, in %.

See these solved cases before continuing.
[[record]]
binder = "M18 (scFv) chain 1: QVQLVQSGGGLVQPGGSLRLSCAASGFTFSSYWMHWVRQAPGKGLVWVSRINSDGSSTSYADSVKGRFTISRDNAKNTLYLQMNSLRAEDTAVYYCVRTGWVGSYYYYMDVWGKGTTVTVSS chain 2: EIVLTQSPGTLSLSPGERATLSCRASQSVSSNYLAWYQQKPGQPPRLLIYDVSTRATGIPARFSGGGSGTDFTLTISSLEPEDFAVYYCQQRSNWPPWTFGQGTKVEIK"
assay_readout = "percent of cells in the gate"
test_result = 9.53

[[record]]
binder = "anti-mesothelin scFv-M7 (scFv, On mRNA-electroporated T cells as CAR) scFv: DIRLTQSPSSLSASLGDRVTITCRASQAISSALAWYQQKPGKAPRLLIYDASTLESGVPSRFSGSGSGTDFTLTISSLQPEDFATYYCQQADSFPLTFGGGTKLEIKGGGGSGGGGSGGGGSQVQLVQSGAEVKKSGESLKISCKGSGYGFGAYWIAWVRQMPGKGLEWMGIIYPGDSRVIYSPYFQGQVTISADKSISTAYLQWSSLKASDTAMYYCARFGGPKFATNWFDIWGQGTTVTVSS"
assay_readout = "percent of cells in the gate"
test_result = 36.3


What value of measured percent of cells in the gate is listed for anti-mesothelin scFv-M6 (scFv, On mRNA-electroporated T cells as CAR) scFv: EIVMTQSPATLSLSPGERATLSCRASQSIGNSLAWYQQKPGQAPRLLIYDVSNRATGIPARFSGSGSGTDFTLTISSLEPEDFAVYYCQHRYSWPLTFGGGTKVEIKGGGGSGGGGSGGGGSQVQLVQSGGGLVKPGGSLRLSCAASGFTFSDYYMSWIRQAPGKGLEWVSYISSSGSTIYYADSVKGRFTISRDNAKNSLYLQMNSLRAEDTAVYYCARDGYRTHNWFDPWGQGTLVTVSS ?
83.4
